target: human recombinant adrenergic α1D receptor (Homo sapiens); construct: expressed in transfected cells; host or cells: HEK-293; assay: Radioligand binding, adrenergic α1D ([3H]Prazosin); conditions: compound at 0.1 μM; [3H]Prazosin; repeat assays, each datapoint shown; read-out: Percentage inhibition of ligand binding, Adrenergic α1D
Sequence (P25100 whole entry): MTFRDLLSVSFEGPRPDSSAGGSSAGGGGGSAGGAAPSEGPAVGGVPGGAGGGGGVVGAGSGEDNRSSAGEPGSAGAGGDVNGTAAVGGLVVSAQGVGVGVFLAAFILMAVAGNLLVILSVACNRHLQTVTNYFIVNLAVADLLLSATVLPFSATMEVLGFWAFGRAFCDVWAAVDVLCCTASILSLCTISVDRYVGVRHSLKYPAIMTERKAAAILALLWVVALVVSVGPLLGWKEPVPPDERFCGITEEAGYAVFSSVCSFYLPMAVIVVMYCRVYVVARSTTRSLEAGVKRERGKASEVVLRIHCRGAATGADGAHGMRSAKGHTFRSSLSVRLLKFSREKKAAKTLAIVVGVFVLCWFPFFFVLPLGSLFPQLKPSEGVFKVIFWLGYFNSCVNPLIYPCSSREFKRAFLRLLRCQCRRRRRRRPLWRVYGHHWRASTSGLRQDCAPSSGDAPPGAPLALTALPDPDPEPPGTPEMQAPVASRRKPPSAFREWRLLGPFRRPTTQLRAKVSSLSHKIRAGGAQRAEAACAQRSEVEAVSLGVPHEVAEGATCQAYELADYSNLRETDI
t means recorded inhibition at 0.1 µM is 10% or above; f means it is below 10%.

Test whether the compound Cc1ccc2c(c1)c1c(n2CCc2ccc(C(F)(F)F)nc2)CCN(C)C1 [compound 86] records inhibition at 0.1 µM of 10% or higher.
t

Threshold query (inhibition at 0.1 µM >= 10%) on CN1CCc2c(c3cc(Cl)ccc3n2CC(O)c2ccncc2)C1 (stereo not shown) [compound 4]
t

Check if inhibition at 0.1 µM >= 10% (inclusive). Item: Cc1ccc2c(c1)c1c(n2CC(C)(O)c2cccnc2)CCN(C)C1 (single isomer, unassigned) [5b]
f

Is the recorded value of inhibition at 0.1 µM equal to or greater than 10% for this compound? Cc1ccc2c(c1)c1c(n2CC2(c3ccccc3)OCCO2)CCN(C)C1 [compound 83]
t

Check the entry CCN1CCc2c(c3cc(C)ccc3n2CCc2ccncc2)C1 [compound 85] : does inhibition at 0.1 µM equal or exceed 10%?
t

Does the reported inhibition at 0.1 µM for Cc1cnc2c(c1)c1c(n2CCc2ccc(C)nc2)CCN2CCCC12 (single isomer, unassigned) [74a] fall at or above the 10% mark?
t

* * *

Target: human recombinant adrenergic α2A receptor (Homo sapiens)
Construct: expressed in transfected cells; host or cells: insect Sf9 cells
Sequence (P08913 1-465): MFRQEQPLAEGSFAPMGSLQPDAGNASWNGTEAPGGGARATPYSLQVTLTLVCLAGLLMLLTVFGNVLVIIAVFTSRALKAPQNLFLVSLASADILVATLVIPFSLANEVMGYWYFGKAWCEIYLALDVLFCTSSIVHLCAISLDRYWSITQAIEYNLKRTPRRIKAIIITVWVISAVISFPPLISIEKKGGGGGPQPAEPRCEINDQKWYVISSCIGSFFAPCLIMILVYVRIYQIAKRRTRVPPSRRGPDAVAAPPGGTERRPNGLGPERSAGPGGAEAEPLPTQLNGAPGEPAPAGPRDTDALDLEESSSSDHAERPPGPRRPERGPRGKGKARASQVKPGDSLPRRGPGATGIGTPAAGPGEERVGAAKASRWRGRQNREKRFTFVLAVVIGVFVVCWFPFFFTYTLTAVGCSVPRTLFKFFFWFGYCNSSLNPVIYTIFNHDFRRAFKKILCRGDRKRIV
Assay: Radioligand binding, adrenergic α2A ([3H]MK-912)
Details: compound at 0.1 μM; [3H]MK-912; repeat datapoints each shown; 0.1 µM
attribute-measured: Percentage inhibition of ligand binding, Adrenergic α2A (0.1 μM)
Answer with the value and then the unit.

Complete the entry with Percentage inhibition of ligand binding, Adrenergic α2A (0.1 μM) for Cc1ccc2c(c1)c1c(n2CC(C)(O)c2ccc(C(N)=O)nc2)CCN(C)C1 (single isomer, unassigned) [II-136b]
5%

Fill in Percentage inhibition of ligand binding, Adrenergic α2A (0.1 μM) for record Cc1cnc2c(c1)c1c(n2CC(O)c2ccncc2)CCN2CCCC12 (single isomer, unassigned) [IV-209c]
59%

Query Percentage inhibition of ligand binding, Adrenergic α2A (0.1 μM) for Cc1ccc2c(c1)c1c(n2CC(N)c2ccncc2)CC2CCC1N2C (single isomer, unassigned) [155a]
−1%

Answer with reported Percentage inhibition of ligand binding, Adrenergic α2A (0.1 μM) of CC(O)(Cn1c2c(c3cc(Cl)ccc31)C1CCCN1CC2)c1cccnc1 (stereo not drawn) [II-130]
41%

Look up and report measured Percentage inhibition of ligand binding, Adrenergic α2A (0.1 μM) for this entry: "CN1CCc2c(c3c(Cl)cccc3n2CCc2ccccc2)C1"
64%

Quickly give me recorded Percentage inhibition of ligand binding, Adrenergic α2A (0.1 μM) for Cc1cnc2c(c1)c1c(n2CC(O)c2ccncc2)CCN2CCCC12 (single isomer, unassigned) [IV-209d]
8%

Name the recorded Percentage inhibition of ligand binding, Adrenergic α2A (0.1 μM) of the item CCN1CCc2c(c3cc(C)ccc3n2CC(O)c2ccc(C)cc2)C1 (single isomer, unassigned) [203b] in your answer.
31%

Let me know recorded Percentage inhibition of ligand binding, Adrenergic α2A (0.1 μM) for Cc1ccc2c(c1)c1c(n2CC(C)(N)c2cccnc2)CCN(C)C1 (single isomer, unassigned) [149b] , thanks.
19%

Return Percentage inhibition of ligand binding, Adrenergic α2A (0.1 μM) (reported value) for this compound: Cc1ccc2c(c1)c1c(n2CC(N=[N+]=[N-])c2ccncc2)CCN(C)C1 (racemic)
29%

Specify measured Percentage inhibition of ligand binding, Adrenergic α2A (0.1 μM) for Cc1cc2c3c(n(CC(C)(O)c4cccnc4)c2cc1Cl)CCN(C)C3 (single isomer, unassigned) [II-123b] .
75%

Let me know recorded Percentage inhibition of ligand binding, Adrenergic α2A (0.1 μM) for Cc1ccc2c(c1)c1c(n2CC(O)c2ccc(F)cc2)CCN2CCCC12 (single isomer, unassigned) [II-120a] , thanks.
65%

Give reported Percentage inhibition of ligand binding, Adrenergic α2A (0.1 μM) value for Cc1ccc2c(c1)c1c(n2CC(C)(O)c2cccnc2)CNCC1 (single isomer, unassigned) [128a]
34%

Could you please provide reported Percentage inhibition of ligand binding, Adrenergic α2A (0.1 μM) for CC(O)(Cn1c2c(c3cc(Cl)cnc31)C1CCCN1CC2)c1cccnc1 (single isomer, unassigned) [IV-210b] ? Thanks!
8%

Determine its reported Percentage inhibition of ligand binding, Adrenergic α2A (0.1 μM): Cc1ccc2c(c1)c1c(n2CC(O)c2cc[nH]c(=O)c2)CCN2CCCC12 (single isomer, unassigned) [II-132b]
22%

Give the value of Percentage inhibition of ligand binding, Adrenergic α2A (0.1 μM) reported for the following: CC(O)(Cn1c2c(c3cc(Cl)cnc31)C1CCCN1CC2)c1cccnc1 (single isomer, unassigned) [IV-210c]
1%
